Would you kindly list Qunt. Yield for each of these compounds?
# Assay Name: Spectroscopic measurements (absorption, emission, quantum yield, extinction coefficient)
# Format: physicochemical
# Experimental Conditions: BDNCA library
Answers are plain numbers.

Reference set (3 entries):
Smiles Entry: Cc1cc(/C=C/c2ccc3c4c(cccc24)CC3)n2c1C(c1ccc(NC(=O)CCl)cc1)=C1C=CC=[N+]1[B-]2(F)F
Meas Value: 0.08

Smiles Entry: CC1=CC(/C=C/c2ccc(Cl)cc2Cl)=[N+]2C1=C(c1ccc(NC(=O)CCl)cc1)c1cccn1[B-]2(F)F
Meas Value: 0.07

Smiles Entry: CCCCc1ccc(/C=C/C2=[N+]3C(=C(c4ccc(NC(=O)CCl)cc4)c4cccn4[B-]3(F)F)C(C)=C2)cc1
Meas Value: 0.17

Specify Qunt. Yield for COc1cc2ccccc2c(/C=C/C2=[N+]3C(=C(c4ccc(NC(=O)CCl)cc4)c4cccn4[B-]3(F)F)C(C)=C2)c1OC and stop.
0.24
